# Test system: SNB-19 CNS
# experimental details: NCI-60 one-dose screen, 48 h (100 = growth as untreated, 0 = no growth, -100 = all killed)
# measurement conditions: 10 µM unless noted
This is part of a sample that, as a whole, favours compounds with a hit. Of some 83,000 tested, about 20% had one in any assay.
I'd appreciate it if you could supply growth values for the items below.
Please respond with the number in % and leave the unit unwritten.

Sure, the documented growth for C[N+]1=C(/C=C/c2ccccc2Cl)C(C)(C)c2ccccc21 is 107

response.value for COc1nc(/C=C\Nc2ccc3c(c2)OCCOCCOCCOCCO3)nc(OC)n1 (field: growth) = 103

Reported growth ( Nc1cc(C(=O)O)cc(-n2c(O)c(C=C3N=c4ccccc4=N3)sc2=S)c1 ) = 103

// growth lookup, molecule = CC1(C)CC[C@]23CC[C@]4(C)[C@H](CC[C@@H]5[C@@]6(C)C/C(=C/O)C(=O)C(C)(C)[C@@H]6CC[C@]54C)[C@H]2[C@H]1OC3 , result: 98

# molecule Nc1nc(N)c2c(n1)NC(c1cccc(Nc3ccnc4cc(C(F)(F)F)ccc34)c1)CC(c1ccc3c(c1)OCO3)=N2 (configuration not stated) ; its growth = 76.5

CN(C)/C(N)=N/N=C(\c1ccccc1)c1ccccn1 yielded growth of 106

growth reading for COC(=O)c1c(C)nc(C)c2c1C(=O)C=C(NCc1ccccc1)C2=O : 93.2

growth reported for this molecule C/C(Cc1ccc(Cl)cc1)=C(\c1ccc(OCCN2CCCCCC2)cc1)c1ccc(OC(=O)c2ccccc2)cc1 : 50.3

Lab note: measured growth of CCCn1c(=S)sc2c(NNC(C)=O)nc(C)nc21 was 92.4

Record O=C(Nc1nc(Cl)nc(Nc2ccc(N3CCOCC3=O)cc2)n1)c1ccc(Cl)s1 . Reported growth: 88.2

What the record says about O=C(Nc1ccc(Nc2ccncc2)cc1)c1ccc(Nc2ccnc3ccc([N+](=O)[O-])cc23)cc1 : growth is 117

// growth value for CCCC(O)Cn1ncc(C(=O)OCC)c1NC(=O)NCc1cccc(C(F)(F)F)c1 (configuration not stated) : 104

Reported growth ( COc1ccc(C(=O)C/C(=C\c2ccc(O)c(OC)c2)C(=O)NN)cc1 ) = 85

// growth lookup, molecule = O=C1O[C@@H](c2ccccc2Cl)[C@@H]2c3cc4c(cc3CCN12)OCO4 , result: 99.4

The molecule listed as Cc1ccc2c(c1)=C/C(=C\c1cc(-c3ccccc3)[nH]c1O)C(=O)N=2 has a reported growth of 34.1

Short answer for S=c1ccnc[nH]1 : growth was 102

For reference, reported growth for COc1cc(Cc2cc(-c3ccccc3)nn(Cc3ccccc3)c2=O)cc(OC)c1OC stands at 51.7

* * *

Could you please report measured growth for the items listed next?
# System: UO-31 renal
# experimental details: NCI-60 one-dose screen, 48 h (100 = growth as untreated, 0 = no growth, -100 = all killed)
# measurement conditions: 10 µM unless noted
# Protocol: Growth inhibition of the UO-31 human tumor cell line is measured as a screen for anti-cancer activity. Cells are grown in 96 well plates and exposed to the test compound for 48 hours. Compounds are tested at a single concentration, which is 10^-5 M for most compounds. The reported endpoint is percent growth (GI% or GIPRCNT), where numbers from 0 - 100% represent growth inhibition, and numbers from -100% - 0 represent cell death. For example, a value of 40 represents 60% growth inhibition. […]
This is part of a sample that, as a whole, favours compounds with a hit. Of some 83,000 tested, about 20% had one in any assay.
Response body: numeric value in %, unit text excluded.

Per the record, CN(C)CCn1c(=O)c2ccccc2n2nc3ccccc3c12 has growth of 52.9

So for CC(C)C1C2=C(NCCN1C(=O)c1ccncc1)C(C)(C)N(Cc1ccccc1)C2=O (centres undefined) , the logged growth turned out to be 83.2

Looking up c1ccc2cc(Cn3cc(CSc4nc5ccccc5s4)nn3)ccc2c1 , I found its growth recorded as 77.6

Value of growth reported for the compound C=C(c1ccc(C(=O)O)c(F)c1)c1cc2c(cc1C)C(C)(C)CCC2(C)C is 92.6

Note to self: growth recorded for COc1cc2c(cc1-c1c(C)noc1C)ncc1nc(CN3CCOCC3)n([C@H](C)COC(F)F)c12 was 14.1

Input O=S(=O)(Nc1cc(F)cc(F)c1)c1ccc(-c2cnc(C3CC3)o2)cc1 . Output growth: 50.1

Note to self: growth recorded for COc1cc2c(c(OC)c1OC)C(=O)CC(c1cccc(C(=O)Nc3ccccc3Br)c1)O2 (centres undefined) was 70.2

Reported growth of c1cc(OCCN2CCCCC2)ccc1CNc1ccc2nc(CCC3CCCCC3)[nH]c2c1 : -30.4

Sample N#Cc1ccc(/C=C/c2cn(-c3ccccc3)nc2-c2cccc([N+](=O)[O-])c2)cc1 ; growth observed: 79.3

// field: growth; key: CC(C)(C)CC(C)(C)Nc1c(-c2c(O)c3ccccc3oc2=O)nc2sc3ccccc3n12 ; value = 16

# compound CC1(C)CC[C@]23CC[C@]4(C)[C@H](CC[C@@H]5[C@@]6(C)C/C(=C/O)C(=O)C(C)(C)[C@@H]6CC[C@]54C)[C@H]2[C@H]1OC3 ; its growth = 85

growth for C/C=C1/CN(CCCCC)CC[C@H]1C(=O)c1cc2ccccc2[nH]1 is 50.7

Record Cc1c2cnccc2c(C)c2c1c1cc(CO)ccc1n2C , field growth: -32.6

For COC(=O)Cn1c2c(c3c(OC)cccc31)C(=O)c1ccccc1-2 the compound record lists growth as 82.5
